- target entity: T1, Clostridium difficile toxin A (Clostridioides difficile …, UniProt P16154)
- T1 construct: also called TcdA
- protocol text: SPR
- condition description: both partners purified
metric name: koff
Write the quantity with the unit trailing the number.

# get_value(readout='koff', item= A26.8 VHH T56R (VHH, source: E. coli TG1, periplasmic extract, purified (IMAC, SEC)) VHH: QVKLEESGGGLVQAGGSLRLSCAASERTFSRYPVAWFRQAPGAEREFVAVISSTGRSTYYADSVKGRFTISRDNAKVTVYLQMNNLKREDTAVYFCAVNSQRTRLQDPNEYDYWGQGTQVTVSS ) 0.027 s⁻¹

Now give it for A26.8 VHH T54W (VHH, source: E. coli TG1, periplasmic extract, purified (IMAC, SEC)) VHH: QVKLEESGGGLVQAGGSLRLSCAASERTFSRYPVAWFRQAPGAEREFVAVISSWGTSTYYADSVKGRFTISRDNAKVTVYLQMNNLKREDTAVYFCAVNSQRTRLQDPNEYDYWGQGTQVTVSS too. 0.056 s⁻¹

Now give it for A26.8 VHH D107R (VHH, source: E. coli TG1, periplasmic extract, purified (IMAC, SEC)) VHH: QVKLEESGGGLVQAGGSLRLSCAASERTFSRYPVAWFRQAPGAEREFVAVISSTGTSTYYADSVKGRFTISRDNAKVTVYLQMNNLKREDTAVYFCAVNSQRTRLQRPNEYDYWGQGTQVTVSS too. 0.026 s⁻¹

Now give it for A26.8 VHH D107N (VHH, source: E. coli TG1, periplasmic extract, purified (IMAC, SEC)) VHH: QVKLEESGGGLVQAGGSLRLSCAASERTFSRYPVAWFRQAPGAEREFVAVISSTGTSTYYADSVKGRFTISRDNAKVTVYLQMNNLKREDTAVYFCAVNSQRTRLQNPNEYDYWGQGTQVTVSS too. 0.04 s⁻¹

Now give it for A26.8 VHH T56R, T103R (VHH, also called lead double mutant; source: E. coli TG1, periplasmic extract, purified (IMAC, SEC)) VHH: QVKLEESGGGLVQAGGSLRLSCAASERTFSRYPVAWFRQAPGAEREFVAVISSTGRSTYYADSVKGRFTISRDNAKVTVYLQMNNLKREDTAVYFCAVNSQRRRLQDPNEYDYWGQGTQVTVSS too. 0.019 s⁻¹

Now give it for A26.8 VHH T58K (VHH, source: E. coli TG1, periplasmic extract, purified (IMAC, SEC)) VHH: QVKLEESGGGLVQAGGSLRLSCAASERTFSRYPVAWFRQAPGAEREFVAVISSTGTSKYYADSVKGRFTISRDNAKVTVYLQMNNLKREDTAVYFCAVNSQRTRLQDPNEYDYWGQGTQVTVSS too. 0.033 s⁻¹

Now give it for A26.8 VHH T56R, T103M (VHH, source: E. coli TG1, periplasmic extract, purified (IMAC, SEC)) VHH: QVKLEESGGGLVQAGGSLRLSCAASERTFSRYPVAWFRQAPGAEREFVAVISSTGRSTYYADSVKGRFTISRDNAKVTVYLQMNNLKREDTAVYFCAVNSQRMRLQDPNEYDYWGQGTQVTVSS too. 0.03 s⁻¹

Now give it for A26.8 VHH Q101K, T103K (VHH, source: E. coli TG1, periplasmic extract, purified (IMAC, SEC)) VHH: QVKLEESGGGLVQAGGSLRLSCAASERTFSRYPVAWFRQAPGAEREFVAVISSTGTSTYYADSVKGRFTISRDNAKVTVYLQMNNLKREDTAVYFCAVNSKRKRLQDPNEYDYWGQGTQVTVSS too. 0.04 s⁻¹

Now give it for A26.8 VHH T103K (VHH, source: E. coli TG1, periplasmic extract, purified (IMAC, SEC)) VHH: QVKLEESGGGLVQAGGSLRLSCAASERTFSRYPVAWFRQAPGAEREFVAVISSTGTSTYYADSVKGRFTISRDNAKVTVYLQMNNLKREDTAVYFCAVNSQRKRLQDPNEYDYWGQGTQVTVSS too. 0.02 s⁻¹

Now give it for A26.8 VHH T103R (VHH, source: E. coli TG1, periplasmic extract, purified (IMAC, SEC)) VHH: QVKLEESGGGLVQAGGSLRLSCAASERTFSRYPVAWFRQAPGAEREFVAVISSTGTSTYYADSVKGRFTISRDNAKVTVYLQMNNLKREDTAVYFCAVNSQRRRLQDPNEYDYWGQGTQVTVSS too. 0.014 s⁻¹

Now give it for A26.8 VHH Q101K, T103R (VHH, source: E. coli TG1, periplasmic extract, purified (IMAC, SEC)) VHH: QVKLEESGGGLVQAGGSLRLSCAASERTFSRYPVAWFRQAPGAEREFVAVISSTGTSTYYADSVKGRFTISRDNAKVTVYLQMNNLKREDTAVYFCAVNSKRRRLQDPNEYDYWGQGTQVTVSS too. 0.023 s⁻¹

Now give it for A26.8 VHH T56R, T103K (VHH, source: E. coli TG1, periplasmic extract, purified (IMAC, SEC)) VHH: QVKLEESGGGLVQAGGSLRLSCAASERTFSRYPVAWFRQAPGAEREFVAVISSTGRSTYYADSVKGRFTISRDNAKVTVYLQMNNLKREDTAVYFCAVNSQRKRLQDPNEYDYWGQGTQVTVSS too. 0.029 s⁻¹

Now give it for A26.8 VHH D107Y (VHH, source: E. coli TG1, periplasmic extract, purified (IMAC, SEC)) VHH: QVKLEESGGGLVQAGGSLRLSCAASERTFSRYPVAWFRQAPGAEREFVAVISSTGTSTYYADSVKGRFTISRDNAKVTVYLQMNNLKREDTAVYFCAVNSQRTRLQYPNEYDYWGQGTQVTVSS too. 0.071 s⁻¹

Now give it for A26.8 VHH N109R (VHH, source: E. coli TG1, periplasmic extract, purified (IMAC, SEC)) VHH: QVKLEESGGGLVQAGGSLRLSCAASERTFSRYPVAWFRQAPGAEREFVAVISSTGTSTYYADSVKGRFTISRDNAKVTVYLQMNNLKREDTAVYFCAVNSQRTRLQDPREYDYWGQGTQVTVSS too. 0.027 s⁻¹

Now give it for A26.8 VHH T54Y (VHH, source: E. coli TG1, periplasmic extract, purified (IMAC, SEC)) VHH: QVKLEESGGGLVQAGGSLRLSCAASERTFSRYPVAWFRQAPGAEREFVAVISSYGTSTYYADSVKGRFTISRDNAKVTVYLQMNNLKREDTAVYFCAVNSQRTRLQDPNEYDYWGQGTQVTVSS too. 0.069 s⁻¹
